# Target under test: RPS6KB2 (human)
# Assay protocol: radiometric filter-binding kinase assay, Kinase HotSpot
# Stated conditions: compound 0.5 µM; ATP 10 µM

{"Molecule": "CS(=O)c1ccc(-c2nc(-c3ccc(F)cc3)c(-c3ccncc3)[nH]2)cc1 (stereo unspecified)", "Target under test": "RPS6KB2 (human)", "residual activity [%]": 97.2}
{"Molecule": "CCCNC(=O)Nc1ccc(Oc2ncnc3cc(OC)c(OC)cc23)cc1Cl", "Target under test": "RPS6KB2 (human)", "residual activity [%]": 104}
{"Molecule": "Nc1n[nH]c2nnc(-c3c(-c4ccccc4)nn4ccccc34)cc12", "Target under test": "RPS6KB2 (human)", "residual activity [%]": 104}
{"Molecule": "Cc1cc2ncc(-c3ccccc3)nc2cc1C", "Target under test": "RPS6KB2 (human)", "residual activity [%]": 98.7}
{"Molecule": "Nc1nc(Nc2ccc(S(N)(=O)=O)cc2)nn1C(=O)c1c(F)cccc1F", "Target under test": "RPS6KB2 (human)", "residual activity [%]": 104}
{"Molecule": "CC(C)n1cnc2c(Nc3cccc(Cl)c3)nc(NCCO)nc21", "Target under test": "RPS6KB2 (human)", "residual activity [%]": 97}

###

# Target under test: SLK (human) (UniProt Q9H2G2)
# Sequence (Q9H2G2 whole entry, looked up): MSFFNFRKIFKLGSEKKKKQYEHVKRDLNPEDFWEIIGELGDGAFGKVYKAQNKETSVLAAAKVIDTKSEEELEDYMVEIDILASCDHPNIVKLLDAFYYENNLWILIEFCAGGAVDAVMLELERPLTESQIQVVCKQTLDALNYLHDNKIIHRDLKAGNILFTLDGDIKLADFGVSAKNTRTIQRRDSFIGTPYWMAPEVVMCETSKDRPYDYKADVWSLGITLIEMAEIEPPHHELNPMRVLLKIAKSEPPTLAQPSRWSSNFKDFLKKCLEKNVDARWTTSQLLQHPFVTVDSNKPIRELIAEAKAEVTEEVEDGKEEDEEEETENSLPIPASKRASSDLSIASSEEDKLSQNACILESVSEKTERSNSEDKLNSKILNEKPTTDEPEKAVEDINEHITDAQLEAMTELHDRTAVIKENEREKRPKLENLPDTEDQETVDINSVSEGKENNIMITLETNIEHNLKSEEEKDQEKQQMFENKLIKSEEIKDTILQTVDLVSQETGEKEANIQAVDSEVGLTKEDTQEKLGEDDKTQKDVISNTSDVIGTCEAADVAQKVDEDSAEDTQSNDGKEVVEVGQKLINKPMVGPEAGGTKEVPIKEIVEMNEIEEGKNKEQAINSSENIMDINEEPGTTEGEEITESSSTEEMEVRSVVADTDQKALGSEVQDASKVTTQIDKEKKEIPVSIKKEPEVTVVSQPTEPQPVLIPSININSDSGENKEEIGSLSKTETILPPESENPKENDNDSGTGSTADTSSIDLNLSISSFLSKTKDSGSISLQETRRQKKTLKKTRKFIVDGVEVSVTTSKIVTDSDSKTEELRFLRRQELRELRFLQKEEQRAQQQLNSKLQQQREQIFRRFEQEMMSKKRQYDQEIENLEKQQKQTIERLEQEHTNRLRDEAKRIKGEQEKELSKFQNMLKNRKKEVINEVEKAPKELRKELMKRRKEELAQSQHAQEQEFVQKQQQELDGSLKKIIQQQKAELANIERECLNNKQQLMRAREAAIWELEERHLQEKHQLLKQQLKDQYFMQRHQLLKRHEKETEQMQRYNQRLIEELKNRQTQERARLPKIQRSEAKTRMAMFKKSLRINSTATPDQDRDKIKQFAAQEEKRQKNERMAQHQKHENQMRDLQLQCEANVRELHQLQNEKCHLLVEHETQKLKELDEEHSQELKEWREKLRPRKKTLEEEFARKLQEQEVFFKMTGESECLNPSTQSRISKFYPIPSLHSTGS
# Assay protocol: radiometric filter-binding kinase assay, Kinase HotSpot
# Stated conditions: compound 0.5 µM; ATP 10 µM
Parameter residual activity: see the listing below.
Property name: residual activity (%)

{"Compound": "COc1cc2ncnc(Nc3ccc(F)c(Cl)c3)c2cc1OCCCN1CCOCC1", "Target under test": "SLK (human) (UniProt Q9H2G2)", "Observed": 83.7}
{"Compound": "CSc1nc(-c2ccc(F)cc2)c(-c2ccnc(NC(C)c3ccccc3)c2)[nH]1 (centres undefined)", "Target under test": "SLK (human) (UniProt Q9H2G2)", "Observed": 104}
{"Compound": "O=c1cc(-c2cccc3c2Sc2ccccc2S3)oc(N2CCOCC2)c1", "Target under test": "SLK (human) (UniProt Q9H2G2)", "Observed": 93.5}
{"Compound": "NC(=O)c1ccc(N(C(N)=O)c2c(F)cccc2F)nc1-c1ccc(F)cc1F", "Target under test": "SLK (human) (UniProt Q9H2G2)", "Observed": 90.7}

###

# Target under test: ACVRL1 (human) (UniProt P37023)
# Sequence (P37023 whole entry, looked up): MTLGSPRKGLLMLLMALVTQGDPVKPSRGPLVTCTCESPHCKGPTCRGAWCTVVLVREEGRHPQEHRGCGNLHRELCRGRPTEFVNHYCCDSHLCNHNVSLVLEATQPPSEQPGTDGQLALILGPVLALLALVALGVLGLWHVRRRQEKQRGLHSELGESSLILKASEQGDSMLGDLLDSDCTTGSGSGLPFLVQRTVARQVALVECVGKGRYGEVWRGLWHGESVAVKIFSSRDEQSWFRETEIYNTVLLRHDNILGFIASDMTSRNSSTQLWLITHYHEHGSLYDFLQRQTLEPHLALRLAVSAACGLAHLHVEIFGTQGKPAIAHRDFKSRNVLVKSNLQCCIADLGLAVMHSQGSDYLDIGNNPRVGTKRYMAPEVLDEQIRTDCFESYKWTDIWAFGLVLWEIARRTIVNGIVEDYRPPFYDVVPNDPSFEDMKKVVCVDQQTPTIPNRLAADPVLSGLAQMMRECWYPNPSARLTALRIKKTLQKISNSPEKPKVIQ
# Assay protocol: radiometric filter-binding kinase assay, Kinase HotSpot
# Stated conditions: compound 0.5 µM; ATP 10 µM

{"Molecule": "O=C(Nc1ccc(Cl)cc1)c1ccccc1NCc1ccncc1", "residual activity [%]": 98.9}
{"Molecule": "C#Cc1cccc(Nc2ncnc3cc(OCCOC)c(OCCOC)cc23)c1", "residual activity [%]": 101}
{"Molecule": "CC(C)(C)c1nc2c3ccc(F)cc3c3c(=O)[nH]ccc3c2[nH]1", "residual activity [%]": 105}
{"Molecule": "O=C1Cc2c([nH]c3ccc([N+](=O)[O-])cc23)-c2ccccc2N1", "residual activity [%]": 76.2}
{"Molecule": "Oc1ccc(-c2nc(-c3ccc(F)cc3)c(-c3ccncc3)[nH]2)cc1", "residual activity [%]": 95.4}
{"Molecule": "Nc1nc(Nc2ccc(S(N)(=O)=O)cc2)nn1C(=S)Nc1c(F)cccc1F", "residual activity [%]": 15.1}
{"Molecule": "CCCNC(=O)Nc1ccc(Oc2ncnc3cc(OC)c(OC)cc23)cc1Cl", "residual activity [%]": 100}
{"Molecule": "CSc1nc(-c2ccc(F)cc2)c(-c2ccnc(NC(C)c3ccccc3)c2)[nH]1 (stereo unspecified)", "residual activity [%]": 92.2}
{"Molecule": "O=c1cc(-c2cccc3c2Sc2ccccc2S3)oc(N2CCOCC2)c1", "residual activity [%]": 99.9}
{"Molecule": "O=C1Nc2cc(Br)ccc2/C1=C1/Nc2ccccc2/C1=N\\O", "residual activity [%]": 103}
{"Molecule": "Cc1cc2ncc(-c3ccccc3)nc2cc1C", "residual activity [%]": 97.9}

The reported measurements were obtained from the kinase profiling compilation of Christmann-Franck et al. (2016).
